organism: Mus musculus; assay: Compound was tested for inhibition of mouse connective tissue cell (L) growth at a concentration of 100 uM; assay type: functional; conditions: Mus musculus

compound	display unit	inhibition at 100 µM
OC[C@H]1OC(n2cnc3c(SCc4ccccc4)nccc32)[C@H](O)[C@@H]1O (stereo partly specified)	%	43
CN(C)c1[nH]ccc2ncnc1-2	%	21
OC[C@H]1OC(n2cnc3c(S)nccc32)[C@H](O)[C@@H]1O (stereo partly specified)	%	3
C[C@H]1OC(n2cnc3c(N)nccc32)[C@H](O)[C@@H]1O (stereo partly specified)	%	4
Sc1[nH]ccc2ncnc1-2	%	38
[O-][n+]1ccc2[nH]cnc2c1	%	1
c1ccc(CNc2[nH]ccc3ncnc2-3)cc1	%	68
[N-]=[N+]=Nc1nccc2c1ncn2[C@H]1C[C@H](O)[C@@H](CO)O1	%	12
CCCCCCNc1[nH]ccc2ncnc1-2	%	82
c1ccc(CSc2[nH]ccc3ncnc2-3)cc1	%	54
OC[C@H]1O[C@@H](n2cnc3c(SCc4ccccc4)nccc32)C[C@@H]1O	%	19
OC[C@H]1OC(n2cnc3c(NCc4ccccc4)nccc32)[C@H](O)[C@@H]1O (stereo partly specified)	%	38
Nc1nccc2c1ncn2[C@@H]1O[C@H](CO)[C@@H](O)[C@H]1O	%	49
OCCNc1[nH]ccc2ncnc1-2	%	16
Nc1[nH]ccc2ncnc1-2	%	24
Clc1[nH]ccc2ncnc1-2	%	29

====

system: EL4; test: Inhibition of lymphocyte-mediated cytolysis at a concentration of 100 uM in [51Cr]- labelled EL4 leukemia cells; type: functional; conditions: Mus musculus

compound	inhibition at 100 µM
CN(C)c1nccc2c1ncn2[C@H]1C[C@H](O)[C@@H](CO)O1	< 5%
CSc1nccc2c1ncn2C1O[C@H](CO)[C@@H](O)[C@H]1O (stereo partly specified)	< 5%
OC[C@H]1O[C@@H](n2cnc3cnccc32)C[C@@H]1O	< 5%
Clc1[nH]ccc2ncnc1-2	< 5%
CN(C)c1nccc2c1ncn2C1O[C@H](CO)[C@@H](O)[C@H]1O (stereo partly specified)	10%
CCNc1nccc2c1ncn2C1O[C@H](CO)[C@@H](O)[C@H]1O (stereo partly specified)	8%
